- TEST SUMMARY: Tmax in BALB/c mouse at 1 mg/kg, po
- Type: ADME, organism-based
- Set-up: dose 1 mg/kg, route oral
- TEST PARAMETERS: in vivo
PROPERTY: Tmax
Answers without a unit are incomplete; give the number and then its unit.

In: For the compound shown here, COc1cc2c(c(OC)c1OC)-c1ccc(SC)c(=O)cc1[C@@H](NC(=O)C1CC1C)CC2 (stereo partly specified) , give the reported Tmax.
Out: 15 min

====

- TEST SUMMARY: Mean residence time (infinity) in BALB/c mouse at 1 mg/kg, po
- Format: ADME, organism-based
- Set-up: dose 1 mg/kg, route oral
- TEST PARAMETERS: in vivo
PROPERTY: MRT inf (h)
Reply with just the number (in h).

In: For the compound shown here, COc1cc2c(c(OC)c1OC)-c1ccc(SC)c(=O)cc1[C@@H](NC(=O)C1CC1C)CC2 (stereo partly specified) , give the reported MRT inf.
Out: 2.2
